# TEST SYSTEM: GST-Aq-NF-kB (Amphimedon queenslandica, UniProt A9Y5G7 2-389)
# Sequence: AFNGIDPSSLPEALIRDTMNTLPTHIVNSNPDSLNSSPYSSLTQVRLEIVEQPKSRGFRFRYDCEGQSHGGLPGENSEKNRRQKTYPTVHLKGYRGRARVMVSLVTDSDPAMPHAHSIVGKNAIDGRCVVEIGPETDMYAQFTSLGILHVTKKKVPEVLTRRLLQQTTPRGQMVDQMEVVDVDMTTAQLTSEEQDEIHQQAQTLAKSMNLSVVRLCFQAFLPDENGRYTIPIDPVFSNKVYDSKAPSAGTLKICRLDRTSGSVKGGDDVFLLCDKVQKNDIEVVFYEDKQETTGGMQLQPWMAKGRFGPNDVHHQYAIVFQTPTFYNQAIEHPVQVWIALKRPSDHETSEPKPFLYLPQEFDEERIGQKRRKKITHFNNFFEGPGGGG
# MEASUREMENT PROTOCOL: protein-binding microarray (PBM); PBM: ~300 nM protein, 6 mM HEPES pH 7.8, 80 mM KCl, 0.5 mM EDTA, 0.5 mM EGTA, 6% glycerol, 35 ng/ul poly-dIdC, 1% milk, 1 h, room temperature; Ap Aiptasia and Nv Nematostella (sea anemones) / Co Capsaspora / Aq Amphimedon (sponge) / Dm Drosophila / Hu human; RHD is the Rel homology domain; high values mean tight binding
# ASSAY CONDITIONS: dsDNA, one strand shown
Mark label 1 for binding signal under 4 z-score, label 0 if at or over.

| QUERY SEQUENCE | ANSWER LABEL |
| --- | --- |
| CCGATTAACATCAAAATTACCCATGATGTTAATCGGGTCTTGATTCGCTTGACGCTGCTG | label 0 |
| CCGATTAACATCAGGGCATCCCATGATGTTAATCGGGTCTTGATTCGCTTGACGCTGCTG | label 1 |
| CCGATTAACATCAATTCCCCTGATGATGTTAATCGGGTCTTGATTCGCTTGACGCTGCTG | label 0 |
| CCGATTAACATCAGGGGCTACCCTGATGTTAATCGGGTCTTGATTCGCTTGACGCTGCTG | label 0 |
| CCGATTAACATCAAAACACTCCCTGATGTTAATCGGGTCTTGATTCGCTTGACGCTGCTG | label 0 |

Consider now this further sequence.
Please state whether binding signal is below 4 z-score for CCGATTAACATCACGGTATTCCCTGATGTTAATCGGGTCTTGATTCGCTTGACGCTGCTG label 0

src = paper PMC5700166
